# system_tested: Epac2^Δ280 (Mus musculus)
# Construct: made in house
# measurement_notes: Epac activation assay (Rap1B•mGDP fluorescence nucleotide exchange), Epac2^Δ280
# Format: biochemical
# condition_details: 0.4 μM compound
recorded_metric: kobs (s⁻¹)
Give your result in s⁻¹ as a bare value.

Would you mind telling me what kobs value was observed for Cc1ccc(CSc2nc3c(N)ncnc3n2[C@@H]2O[C@@H]3CO[P@](O)(=S)O[C@H]3[C@H]2O)cc1 [S-230, Sp-8-pMeBnT-cAMPS] ?
0.000337

Would you mind telling me what kobs value was observed for Nc1ncnc2c1nc(SCc1ccccc1)n2[C@@H]1O[C@@H]2CO[P@](O)(=S)O[C@H]2[C@H]1O [S-220, Sp-8-BnT-cAMPS] ?
0.00167

Would you mind telling me what kobs value was observed for Nc1ncnc2c1ncn2[C@@H]1O[C@@H]2COP(=O)(O)O[C@H]2[C@H]1O [cAMP, reference compound] ?
9.9e-05

Would you mind telling me what kobs value was observed for Nc1ncnc2c1ncn2C1OC2COP(O)(=S)OC2C1O (stereo not shown) [S-000, Sp-cAMPS] ?
0.000122

---

# system_tested: Epac2^Δ280 (Mus musculus, UniProt Q9EQZ6)
# Construct: made in house
# Sequence (Q9EQZ6 299-1011, stated change not applied): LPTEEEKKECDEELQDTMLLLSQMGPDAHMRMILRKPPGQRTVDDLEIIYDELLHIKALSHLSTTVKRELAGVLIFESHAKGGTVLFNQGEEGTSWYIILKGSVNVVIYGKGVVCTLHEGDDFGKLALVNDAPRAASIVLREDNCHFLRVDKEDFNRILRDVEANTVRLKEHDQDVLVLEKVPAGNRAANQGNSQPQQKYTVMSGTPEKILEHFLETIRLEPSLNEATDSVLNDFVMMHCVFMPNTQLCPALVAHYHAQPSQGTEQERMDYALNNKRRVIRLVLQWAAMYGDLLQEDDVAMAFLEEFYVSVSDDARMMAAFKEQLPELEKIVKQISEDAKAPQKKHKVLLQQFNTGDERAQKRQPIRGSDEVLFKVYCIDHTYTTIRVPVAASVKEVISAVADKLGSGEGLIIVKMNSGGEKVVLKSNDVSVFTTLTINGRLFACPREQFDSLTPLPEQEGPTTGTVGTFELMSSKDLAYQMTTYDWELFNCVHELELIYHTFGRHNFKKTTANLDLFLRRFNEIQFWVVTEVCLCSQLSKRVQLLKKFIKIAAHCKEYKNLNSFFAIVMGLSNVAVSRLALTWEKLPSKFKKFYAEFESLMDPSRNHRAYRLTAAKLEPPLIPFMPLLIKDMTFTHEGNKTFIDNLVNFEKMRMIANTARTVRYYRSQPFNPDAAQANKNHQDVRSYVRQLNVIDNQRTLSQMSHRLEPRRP
# measurement_notes: Epac activation assay (Rap1B•mGDP fluorescence nucleotide exchange), Epac2^Δ280
# Assay type: biochemical
# condition_details: Epac2^Δ280
Consider the cut-off 8000 nM. If the recorded AC50 is strictly smaller, the label is yes; if not, the label is no.

Strictly below 8000 nM in AC50? Nc1ncnc2c1ncn2[C@@H]1O[C@@H]2COP(=O)(O)O[C@H]2[C@H]1OCc1ccccc1
no

Strictly below 8000 nM in AC50? Nc1ncnc2c1nc(Cl)n2[C@@H]1O[C@@H]2COP(=O)(O)O[C@H]2[C@H]1Cl
no

Strictly below 8000 nM in AC50? C=CCO[C@@H]1[C@@H]2OP(=O)(O)OC[C@H]2O[C@H]1n1cnc2c(N)ncnc21
no

Strictly below 8000 nM in AC50? Nc1ncnc2c1nc(SCc1ccc(Cl)cc1)n2[C@@H]1O[C@@H]2CO[P@](O)(=S)O[C@H]2[C@H]1O
yes

Strictly below 8000 nM in AC50? Nc1ncnc2c1nc([Se]Cc1ccccc1)n2[C@@H]1O[C@@H]2COP(=O)(O)O[C@H]2[C@H]1OCc1ccccc1
yes

Strictly below 8000 nM in AC50? CC(C)N(C)c1nc2c(N)ncnc2n1[C@@H]1O[C@@H]2CO[P@](O)(=S)O[C@H]2[C@H]1O
yes

Strictly below 8000 nM in AC50? Nc1ncnc2c1nc(SCc1ccccc1)n2[C@H]1C[C@@H]2O[P@@](O)(=S)OC[C@H]2O1
no

Strictly below 8000 nM in AC50? CO[C@H]1C2OP(O)(=S)OC[C@H]2O[C@H]1n1c(Sc2ccc(Cl)cc2)nc2c(N)ncnc21 (stereo partly drawn)
yes

Strictly below 8000 nM in AC50? O=P1(O)OC[C@H]2O[C@@H](n3cnc4c(Nc5ccccc5)ncnc43)[C@H](O)[C@@H]2O1
yes

Strictly below 8000 nM in AC50? Nc1ncnc2c1nc(Cl)n2[C@@H]1O[C@@H]2COP(O)(=S)O[C@@H]2C1O (stereo partly drawn)
yes

Strictly below 8000 nM in AC50? CNc1nc2c(N)ncnc2n1[C@@H]1O[C@@H]2CO[P@](O)(=S)O[C@H]2[C@H]1O
yes

Strictly below 8000 nM in AC50? Nc1ncnc2c1nc(Br)n2[C@@H]1O[C@@H]2COP(=O)(O)O[C@H]2[C@H]1Cl
no

Strictly below 8000 nM in AC50? CNc1nc2c(N)ncnc2n1[C@@H]1O[C@@H]2CO[P@](O)(=S)O[C@H]2[C@H]1OC
no

Strictly below 8000 nM in AC50? CCN(C)c1nc2c(N)ncnc2n1[C@@H]1O[C@@H]2CO[P@](O)(=S)O[C@H]2[C@H]1O
yes

Strictly below 8000 nM in AC50? Nc1ncnc2c1nc(Sc1ccc(Cl)cc1)n2[C@@H]1O[C@@H]2COP([O-])(=S)O[C@H]2[C@H]1O.[Na+] (stereo partly drawn)
yes

Strictly below 8000 nM in AC50? Nc1ncnc2c1nc(O)n2[C@@H]1O[C@@H]2CO[P@](O)(=S)O[C@H]2[C@H]1O
yes

Strictly below 8000 nM in AC50? Nc1ncnc2c1nc(SCCc1ccccc1)n2[C@@H]1O[C@@H]2CO[P@](O)(=S)O[C@H]2[C@H]1O
yes

Strictly below 8000 nM in AC50? CN(C)c1nc2c(N)ncnc2n1[C@@H]1O[C@@H]2COP(=O)(O)O[C@H]2[C@H]1O
yes

Strictly below 8000 nM in AC50? Nc1ncnc2c1nc(NC1CCCCC1)n2[C@@H]1O[C@@H]2COP(=O)(O)O[C@H]2[C@H]1O
yes

Strictly below 8000 nM in AC50? Nc1ncnc2c1nc(N1CCOCC1)n2[C@@H]1O[C@@H]2COP(=O)(O)O[C@H]2[C@H]1O
no

Strictly below 8000 nM in AC50? CSc1nc2c(N)ncnc2n1[C@@H]1O[C@@H]2COP(=O)(O)O[C@H]2[C@H]1SC
yes

Strictly below 8000 nM in AC50? Nc1ncnc2c1nc(Br)n2[C@@H]1O[C@@H]2COP(O)(=S)O[C@@H]2C1O (stereo partly drawn)
yes

Strictly below 8000 nM in AC50? CSc1nc2c(N)ncnc2n1[C@@H]1O[C@@H]2COP(=O)(O)O[C@H]2[C@H]1O
yes

Strictly below 8000 nM in AC50? C[Se]c1nc2c(N)ncnc2n1[C@@H]1O[C@@H]2COP(=O)(O)O[C@H]2[C@H]1O
yes

Strictly below 8000 nM in AC50? Nc1ncnc2c1nc(N1CCCCC1)n2[C@@H]1O[C@@H]2CO[P@](O)(=S)O[C@H]2[C@H]1O
no

Strictly below 8000 nM in AC50? CNc1nc2c(N)ncnc2n1[C@@H]1O[C@@H]2COP(=O)(O)O[C@H]2[C@H]1Cl
no

---

Field: pEC50. Provide a value for each of the compounds that follow.
# system_tested: UniProt P10644
# Sequence (P10644 whole entry): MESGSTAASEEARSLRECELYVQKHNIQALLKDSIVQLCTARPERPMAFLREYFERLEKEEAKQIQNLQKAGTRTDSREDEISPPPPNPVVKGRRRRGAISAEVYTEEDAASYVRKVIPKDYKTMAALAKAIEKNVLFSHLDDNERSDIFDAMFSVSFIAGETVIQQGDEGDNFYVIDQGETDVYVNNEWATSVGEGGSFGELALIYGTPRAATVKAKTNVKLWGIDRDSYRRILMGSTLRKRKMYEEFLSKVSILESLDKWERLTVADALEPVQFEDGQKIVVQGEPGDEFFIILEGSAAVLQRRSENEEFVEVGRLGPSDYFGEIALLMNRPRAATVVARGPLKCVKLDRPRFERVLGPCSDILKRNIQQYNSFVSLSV
# measurement_notes: PKA activity assay (coupled spectrophotometric, Kemptide), PKA-Iα
# condition_details: PKA-Iα; read-out: Kact
// pEC50 here means minus log10 of the molar concentration (mol/L)

Would you mind telling me what pEC50 value was observed for Nc1ncnc2c1nc(SCc1ccccc1)n2[C@@H]1O[C@@H]2CO[P@](O)(=S)O[C@H]2[C@H]1O ?
6.54

Would you mind telling me what pEC50 value was observed for COC1C2OP(=O)(O)OCC2OC1n1c(Sc2ccc(Cl)cc2)nc2c(N)ncnc21 [D-007, 8-pCPT-2′-O-Me-cAMP, reference compound] ?
4.85

---

# system_tested: Epac2^Δ280 (Mus musculus, UniProt Q9EQZ6)
# Construct: made in house
# measurement_notes: Epac activation assay (Rap1B•mGDP fluorescence nucleotide exchange), Epac2^Δ280
# Assay type: biochemical
# condition_details: Epac2^Δ280; maximal activity relative to cAMP
Decide by Rel. kmax: equal to or exceeding 2 means fulfilled, less means not fulfilled.

Threshold query (Rel. kmax >= 2) on Nc1ncnc2c1ncn2C1OC2COP(O)(=S)OC2C1O (stereo not shown)
fulfilled

Threshold query (Rel. kmax >= 2) on CCN(CC)c1nc2c(N)ncnc2n1[C@@H]1O[C@@H]2COP(=O)(O)O[C@H]2[C@H]1O
fulfilled

Threshold query (Rel. kmax >= 2) on Nc1ncnc2c1nc(Br)n2[C@@H]1O[C@@H]2COP(=O)(O)O[C@H]2[C@H]1F
not fulfilled

Threshold query (Rel. kmax >= 2) on C=CCO[C@@H]1[C@@H]2OP(=O)(O)OC[C@H]2O[C@H]1n1cnc2c(N)ncnc21
not fulfilled

Threshold query (Rel. kmax >= 2) on CC(C)N(C)c1nc2c(N)ncnc2n1[C@@H]1O[C@@H]2CO[P@](O)(=S)O[C@H]2[C@H]1O
fulfilled

Threshold query (Rel. kmax >= 2) on Nc1ncnc2c1nc(NCCO)n2[C@@H]1O[C@@H]2COP(=O)(O)O[C@H]2[C@H]1O
not fulfilled

Threshold query (Rel. kmax >= 2) on Nc1ncnc2c1nc(N1CCCCC1)n2[C@@H]1O[C@@H]2CO[P@](O)(=S)O[C@H]2[C@H]1O
fulfilled

---

Field: kobs. Provide a value for each of the molecules that follow.
# system_tested: Epac2^Δ280 (Mus musculus)
# Construct: made in house
# measurement_notes: Epac activation assay (Rap1B•mGDP fluorescence nucleotide exchange), Epac2^Δ280
# Assay type: biochemical
# condition_details: 0.6 μM compound
Give your result in s⁻¹ as a bare value.

Would you mind telling me what kobs value was observed for Nc1ncnc2c1ncn2C1OC2COP(O)(=S)OC2C1O (stereo not shown) ?
0.000141

Would you mind telling me what kobs value was observed for Cc1ccc(CSc2nc3c(N)ncnc3n2[C@@H]2O[C@@H]3CO[P@](O)(=S)O[C@H]3[C@H]2O)cc1 ?
0.000448

Would you mind telling me what kobs value was observed for Nc1ncnc2c1nc(SCc1ccccc1)n2[C@@H]1O[C@@H]2CO[P@](O)(=S)O[C@H]2[C@H]1O ?
0.00184

Would you mind telling me what kobs value was observed for Nc1ncnc2c1ncn2[C@@H]1O[C@@H]2COP(=O)(O)O[C@H]2[C@H]1O [cAMP, reference compound] ?
0.000113

Hey, just so you know, these numbers are from paper PMC4300089.
